# protocol-details: Plasma pharmacokinetics after oral administration to cynomolgus monkeys (LC-MS/MS)
# Assay type: in vivo
# assay-conditions: po, male cynomolgus monkey, 3 mg/kg to the stomach in 0.5% MC, fasted, read-out: Cmax: Maximum concentration
# Experimental: Cynomolgus monkeys (male) were used, and the monkeys were fasted from one day before the test compound was administered. […] Preparation of Standard Solution and Internal Standard (IS) Solution: Each test compound was dissolved in acetonitrile, whereby a 1 mg/mL solution of each test compound was prepared. […] Determination of Test Compound: The plasma concentration of each test compound was analyzed by the LC-MS/MS method. […]
measured-metric: Cmax (ng/mL)

Observe how each entry below is paired with its result.
Cc1c(C(=O)Nc2ccc(S(C)(=O)=O)cc2)cn(CCO)c1-c1ccccc1C(F)(F)F (single isomer, unassigned) [Isomer D] :: 1330
Cc1c(C(=O)Nc2ccc(S(C)(=O)=O)cc2)cn(CCO)c1-c1ccccc1C(F)(F)F (racemic) [Example 3] :: 380
Cc1c(C(=O)Nc2ccc(S(C)(=O)=O)cc2)cn(C)c1-c1ccccc1C(F)(F)F (single isomer, unassigned) [Isomer B] :: 184

[1] COc1ccc(-c2c(C)c(C(=O)Nc3ccc(S(C)(=O)=O)cc3)cn2CCO)c(C(F)(F)F)c1 (racemic) [Example 5]
[2] COc1ccc(-c2c(C)c(C(=O)Nc3ccc(S(C)(=O)=O)cc3)cn2CCO)c(C(F)(F)F)c1 (single isomer, unassigned) [Isomer E]
[3] Cc1c(C(=O)Nc2ccc(S(C)(=O)=O)cc2)cn(C)c1-c1ccccc1C(F)(F)F (racemic) [Example 1]
Enquiry: Rank items: key Cmax, increasing. Answer by listing the labels in the order asked for.
Return: 1, 3, 2

====

# protocol-details: Plasma pharmacokinetics after oral administration to cynomolgus monkeys (LC-MS/MS)
# Assay type: in vivo
# assay-conditions: male cynomolgus monkey, 3 mg/kg to the stomach in 0.5% MC, fasted
measured-metric: AUC: Area under the plasma concentration versus time curve (0-48 hr.) (ng·h/mL)

Observe how each entry below is paired with its result.
Cc1c(C(=O)Nc2ccc(S(C)(=O)=O)cc2)cn(C)c1-c1ccccc1C(F)(F)F (racemic) [Example 1] :: 860
COc1ccc(-c2c(C)c(C(=O)Nc3ccc(S(C)(=O)=O)cc3)cn2CCO)c(C(F)(F)F)c1 (single isomer, unassigned) [Isomer E] :: 7187
COc1ccc(-c2c(C)c(C(=O)Nc3ccc(S(C)(=O)=O)cc3)cn2CCO)c(C(F)(F)F)c1 (racemic) [Example 5] :: 33
Cc1c(C(=O)Nc2ccc(S(C)(=O)=O)cc2)cn(CCO)c1-c1ccccc1C(F)(F)F (racemic) [Example 3] :: 7667

[a] Cc1c(C(=O)Nc2ccc(S(C)(=O)=O)cc2)cn(C)c1-c1ccccc1C(F)(F)F (single isomer, unassigned) [Isomer B]
[b] Cc1c(C(=O)Nc2ccc(S(C)(=O)=O)cc2)cn(CCO)c1-c1ccccc1C(F)(F)F (single isomer, unassigned) [Isomer D]
Enquiry: Could you point out whether the larger AUC: Area under the plasma concentration versus time curve (0-48 hr.) belongs to a or to b ? To answer, give the label that identifies your chosen option.
Return: b

====

# target: human mineralocorticoid receptor (hMR) ligand-binding domain (GAL4-hMR receptor) (Homo sapiens)
# Sequence (P08235 726-964 limits assumed): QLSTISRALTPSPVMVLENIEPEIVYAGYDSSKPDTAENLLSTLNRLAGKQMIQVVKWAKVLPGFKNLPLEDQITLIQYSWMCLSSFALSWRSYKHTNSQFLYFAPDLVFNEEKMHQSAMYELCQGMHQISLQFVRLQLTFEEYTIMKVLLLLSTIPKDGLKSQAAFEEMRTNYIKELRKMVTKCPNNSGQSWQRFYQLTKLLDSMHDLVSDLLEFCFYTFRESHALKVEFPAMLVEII
# protocol-details: GAL4-hMR luciferase reporter assay in HEK293 cells in the presence of 1 nM aldosterone (mineralocorticoid receptor antagonistic activity)
# assay-conditions: concentration giving Imax/2; HEK293, 1 nM aldosterone present, overnight incubation; read-out: ICmax50
# Excerpt: A plasmid pM-hMR-LBD which is obtained by ligation of a ligand-binding domain (LBD, corresponding to a region of about 308 amino acids at the carboxy terminus) of human mineralocorticoid receptor (hMR, NM_000901) to a DNA-binding domain (corresponding to a region of 147 amino acids at the amino terminus) of a yeast transcription factor GAL4 and expresses GAL4-hMR receptor was constructed. […]
measured-metric: IC50 (nM)

Cc1c(C(=O)Nc2ccc(S(C)(=O)=O)cc2)cn(CCO)c1-c1ccccc1C(F)(F)F (single isomer, unassigned) [Isomer D] :: 2.4

[a] Cc1c(C(=O)Nc2ccc(S(C)(=O)=O)cc2)cn(C)c1-c1ccccc1C(F)(F)F (racemic) [Example 1]
[b] COc1ccc(-c2c(C)c(C(=O)Nc3ccc(S(C)(=O)=O)cc3)cn2CCO)c(C(F)(F)F)c1 (single isomer, unassigned) [Isomer E]
[c] Cc1c(C(=O)Nc2ccc(S(C)(=O)=O)cc2)cn(C)c1-c1ccccc1C(F)(F)F (single isomer, unassigned) [Isomer B]
[d] COc1ccc(-c2c(C)c(C(=O)Nc3ccc(S(C)(=O)=O)cc3)cn2CCO)c(C(F)(F)F)c1 (racemic) [Example 5]
Enquiry: Rank items: key IC50, increasing. Answer by listing the labels in the order asked for.
Return: b, c, d, a

====

# target: human mineralocorticoid receptor (hMR) ligand-binding domain (GAL4-hMR receptor) (Homo sapiens, UniProt P08235)
# Construct: expressed in transfected cells; host or cells: HEK293
# protocol-details: GAL4-hMR luciferase reporter assay in HEK293 cells in the presence of 1 nM aldosterone (mineralocorticoid receptor antagonistic activity)
# Assay type: cell-based
# assay-conditions: maximum value from the graph of relative luciferase activity; DMSO control = 0%, 1 nM aldosterone control = 100%
measured-metric: Imax (%)

Cc1c(C(=O)Nc2ccc(S(C)(=O)=O)cc2)cn(CCO)c1-c1ccccc1C(F)(F)F (racemic) [Example 3] :: 105
COc1ccc(-c2c(C)c(C(=O)Nc3ccc(S(C)(=O)=O)cc3)cn2CCO)c(C(F)(F)F)c1 (single isomer, unassigned) [Isomer E] :: 115
Cc1c(C(=O)Nc2ccc(S(C)(=O)=O)cc2)cn(C)c1-c1ccccc1C(F)(F)F (single isomer, unassigned) [Isomer B] :: 123
COc1ccc(-c2c(C)c(C(=O)Nc3ccc(S(C)(=O)=O)cc3)cn2CCO)c(C(F)(F)F)c1 (racemic) [Example 5] :: 97
Cc1c(C(=O)Nc2ccc(S(C)(=O)=O)cc2)cn(CCO)c1-c1ccccc1C(F)(F)F (single isomer, unassigned) [Isomer D] :: 99
Cc1c(C(=O)Nc2ccc(S(C)(=O)=O)cc2)cn(C)c1-c1ccccc1C(F)(F)F (racemic) [Example 1] :: 95

====

Quick list: IC50 per entry.
# target: human mineralocorticoid receptor (hMR) ligand-binding domain (GAL4-hMR receptor) (Homo sapiens, UniProt P08235)
# protocol-details: GAL4-hMR luciferase reporter assay in HEK293 cells in the presence of 1 nM aldosterone (mineralocorticoid receptor antagonistic activity)
# assay-conditions: concentration giving Imax/2; HEK293, 1 nM aldosterone present, overnight incubation; read-out: ICmax50

Enquiry: For the compound Cc1c(C(=O)Nc2ccc(S(C)(=O)=O)cc2)cn(CCO)c1-c1ccccc1C(F)(F)F (single isomer, unassigned) [Isomer C] , what IC50 is on record?
Return: > 1 µM

Enquiry: For the compound Cc1c(C(=O)Nc2ccc(S(C)(=O)=O)cc2)cn(C)c1-c1ccccc1C(F)(F)F (single isomer, unassigned) [Isomer A] , what IC50 is on record?
Return: > 1 µM

Enquiry: For the compound COc1ccc(-c2c(C)c(C(=O)Nc3ccc(S(C)(=O)=O)cc3)cn2CCO)c(C(F)(F)F)c1 (single isomer, unassigned) [Isomer F] , what IC50 is on record?
Return: > 1 µM
